Numbers sourced from paper PMC8745369.

# Ki per record follows
# TESTED_ON: hCA I (Homo sapiens, UniProt P00915)
# Sequence (P00915 whole entry): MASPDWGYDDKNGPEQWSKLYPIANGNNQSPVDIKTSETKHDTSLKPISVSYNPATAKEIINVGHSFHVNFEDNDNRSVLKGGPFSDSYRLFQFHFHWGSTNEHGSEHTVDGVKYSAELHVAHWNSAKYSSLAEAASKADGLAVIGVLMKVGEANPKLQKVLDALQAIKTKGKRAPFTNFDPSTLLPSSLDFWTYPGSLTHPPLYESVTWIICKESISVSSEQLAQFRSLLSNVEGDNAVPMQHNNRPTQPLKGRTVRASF
# TEST_DETAILS: Stopped flow CO2 hydrase assay, hCA I inhibition
# Format: biochemical
# DETAILS: stopped flow technique; incubation time of 6 h; mean from 3 different assays; read-out: KI CA I

O=C(CN1C(=O)SC(=Cc2ccccc2Cl)C1=O)c1cc2ccccc2oc1=O [10f]    > 100 µM

Query: Lab note: need Ki with hCA I (Homo sapiens, UniProt P00915) for entry COc1ccc(OC)c(C=C2SC(=O)N(CC(=O)c3cc4cc(Br)ccc4oc3=O)C2=O)c1 [10k] , please look it up.
Result: > 100 µM

Query: Quick check: Ki on hCA I (Homo sapiens, UniProt P00915), item O=C(CN1C(=O)SC(=Cc2ccccc2)C1=O)c1cc2cc(Br)ccc2oc1=O [10h] ?
Result: > 100 µM

Query: Hello, I am looking for reported Ki with hCA I (Homo sapiens, UniProt P00915) for Cc1ccc(C=C2SC(=O)N(CC(=O)c3cc4ccccc4oc3=O)C2=O)o1 [11b] . Could you help?
Result: > 100 µM

Query: Identify the measured Ki of `O=C(CN1C(=O)CSC1=O)c1cc2cc(Br)ccc2oc1=O` for hCA I (Homo sapiens, UniProt P00915).
Result: > 100 µM

Query: Provide the documented Ki with hCA I (Homo sapiens, UniProt P00915) as the system for O=C(CN1C(=O)SC(=Cc2ccc([N+](=O)[O-])cc2)C1=O)c1cc2cc(Br)ccc2oc1=O [10l]
Result: > 100 µM

Query: Could you share what Ki was measured for O=C(CN1C(=O)SC(=Cc2ccccc2Br)C1=O)c1cc2ccccc2oc1=O [10g] , tested on hCA I (Homo sapiens, UniProt P00915)?
Result: > 100 µM

Query: // fetch hCA I (Homo sapiens, UniProt P00915) Ki for O=C(CN1C(=O)SC(=Cc2ccc([N+](=O)[O-])cc2)C1=O)c1cc2ccccc2oc1=O [10e]
Result: > 100 µM

Query: Record COc1ccc(OC)c(C=C2SC(=O)N(CC(=O)c3cc4ccccc4oc3=O)C2=O)c1 [10d] : what is its Ki with hCA I (Homo sapiens, UniProt P00915)?
Result: > 100 µM

Query: GET /values?readout=Ki&system=hCA I (Homo sapiens, UniProt P00915)&item= O=C(CN1C(=O)SC(=Cc2ccccc2Cl)C1=O)c1cc2cc(Br)ccc2oc1=O [10m]
Result: > 100 µM

Query: // lookup Ki | system=hCA I (Homo sapiens, UniProt P00915) | key= COc1ccc(C=C2SC(=O)N(CC(=O)c3cc4cc(Br)ccc4oc3=O)C2=O)cc1 [10j]
Result: > 100 µM

Query: Reported Ki for hCA I (Homo sapiens, UniProt P00915), given COc1ccc(C=C2SC(=O)N(CC(=O)c3cc4ccccc4oc3=O)C2=O)cc1 [10c] ?
Result: > 100 µM

Query: Find the measured Ki: item Cc1ccc(C=C2SC(=O)N(CC(=O)c3cc4ccccc4oc3=O)C2=O)cc1 [10b] , target or system hCA I (Homo sapiens, UniProt P00915).
Result: > 100 µM

Query: Please provide the recorded Ki for Cc1ccc(C=C2SC(=O)N(CC(=O)c3cc4cc(Br)ccc4oc3=O)C2=O)cc1 [10i] , tested on hCA I (Homo sapiens, UniProt P00915).
Result: > 100 µM

Query: Param readout= Ki; system= hCA I (Homo sapiens, UniProt P00915); entry= O=C(CN1C(=O)SC(=Cc2ccccc2Br)C1=O)c1cc2cc(Br)ccc2oc1=O [10n] ; returns value.
Result: > 100 µM

Query: Lab note: need Ki for `O=C(CN1C(=O)CSC1=O)c1cc2ccccc2oc1=O` on hCA I (Homo sapiens, UniProt P00915), anyone have it?
Result: > 100 µM

Query: Observed Ki on hCA I (Homo sapiens, UniProt P00915) for O=C(CN1C(=O)SC(=Cc2cccs2)C1=O)c1cc2cc(Br)ccc2oc1=O [11c] , please.
Result: > 100 µM

Query: Give Ki (hCA I (Homo sapiens, UniProt P00915)) of the following compound: O=C(CN1C(=O)SC(=Cc2ccccc2)C1=O)c1cc2ccccc2oc1=O [10a]
Result: > 100 µM
